Let's look at some compounds and their measured growth inhibition.
protocol_details: NCI Yeast Anticancer Drug Screen. Data for the bub3 strain (AID 167)
test_settings: S. cerevisiae bub3 mutant strain, at 50.0 µM, hits give high values
About 79,000 compounds went through this panel and 15% of them were active in at least one assay; those are over-represented in the sample as a whole.
Lab book: enter the figure in %, no units written.

Previously resolved entries follow.
compound: CCO/N=C(\N)c1ccccc1
growth inhibition, %: 0.95

compound: Nc1cccc2sccc12
growth inhibition, %: 11.9

compound: CCOC1CCCCO1 (configuration not stated)
growth inhibition, %: -13.8

compound: CCCCCCCCOC1OC(COC(C)=O)C(OC(C)=O)C(OC(C)=O)C1OC(C)=O (configuration not stated)
growth inhibition, %: -35.5

compound: CC(C)c1nnnn1C12CC3CC(CC(C3)C1)C2
growth inhibition, %: -3.3

compound: CC(=Nc1ccc(Cl)c(Cl)c1)c1ccncc1
growth inhibition, %: 2.1

Now, please, on to the next compound.
Measured growth inhibition of N#CN=C(N(Cc1ccccc1)Cc1ccccc1)N(Cc1ccccc1)Cc1ccccc1 : 12.4

----------
protocol_details: NCI Yeast Anticancer Drug Screen. Data for the bub3 strain (AID 167)
test_settings: S. cerevisiae bub3 mutant strain, at 50.0 µM
This is part of a sample that, as a whole, favours compounds with a hit. Of some 79,000 tested, about 15% had one in any assay. Active and inactive are the calls of the source. No stated cut-off is given here; in the data, active means growth inhibition above about 70%; inactive means the rest.
Entry note: the call must match one of label 1 (active), label 0 (inactive)

The examples below pair each entry with its known result.
compound: CC/C(Cl)=N\OC(=O)Nc1ccc(F)cc1F
category: label 0
--
compound: O=C(OCc1ccccc1)N(Cc1ccccc1)S(=O)(=O)c1ccccc1
category: label 0
--
compound: O=c1cc([O-])[n+](C2OC(CO)C(O)C2O)c2sccn12 (centres undefined)
category: label 0
--
compound: COc1ccc([C@H]2CC3C(=O)N(c4ccc(OC)cc4)C(=O)C3c3[nH]c4ccccc4c32)cc1 (some centres undefined)
category: label 0
--
compound: COc1ccc(-c2c(C#N)c(N)nc(C)c2-c2ccccc2)cc1
category: label 0

Given Nc1ccc(/C=C/C(=O)O)cc1 , state the outcome it received in this test.
label 0

Given Cn1c(=O)c2c(-c3ccccc3)cc(-c3ccccc3)nc2n(C)c1=O , state the outcome it received in this test.
label 0

Given CC1CCC(O)C(C(O)CC2CC(=O)NC(=O)C2)C1 (centres undefined) , state the outcome it received in this test.
label 0

Given O=c1[nH]cnc2c(COCCO)c[nH]c12 , state the outcome it received in this test.
label 0

Given CC(=O)NC1(C)C(=O)N=C(N)N=C1N (centres undefined) , state the outcome it received in this test.
label 0

Given CN(C)CC1CCCCCCC1=O (centres undefined) , state the outcome it received in this test.
label 0

Given CCOC(=O)Cc1c(C)cc(C)cc1C , state the outcome it received in this test.
label 0

Given Cn1c(=N)n(CC(=O)NC23CC4CC(CC(C4)C2)C3)c2ccccc21 , state the outcome it received in this test.
label 0

----------
protocol_details: NCI Yeast Anticancer Drug Screen. Data for the mlh1 rad18 strain (AID 175)
test_settings: S. cerevisiae mlh1 rad18 strain growth inhibition; at 50.0 µM; hits give high values
This is part of a sample that, as a whole, favours compounds with a hit. Of some 79,000 tested, about 15% had one in any assay.
Let's look at some molecules and their measured growth inhibition.
Lab book: enter the figure in %, no units written.

Previously resolved entries follow.
molecule: CCC(=O)Nc1cc(C)ccc1Cl
growth inhibition / %: -0.6
//
molecule: C=CCOC(=O)Nc1ccc(S(=O)(=O)N2CCCCC2)cc1
growth inhibition / %: -5.15
//
molecule: Oc1cccc2c1N1CCN2CC1
growth inhibition / %: 10.3
//
molecule: CCC(C)(C#N)OC(C)=O (configuration not stated)
growth inhibition / %: 8.45
//
molecule: N#C[C@H](c1nc2ccccc2s1)c1nc2ccccc2nc1Cl
growth inhibition / %: 5.25
//
molecule: CC(=O)N(C)c1cccc2cccc(S(=O)(=O)O)c12
growth inhibition / %: -15.3
//
molecule: CC(C)SC(=O)C[Si](C)(C)C
growth inhibition / %: -1.65
//
molecule: CCCN(N)CCC
growth inhibition / %: -1.6

Measured growth inhibition of CC(C)CC1NC(=S)N(c2ccccc2)C1=O (configuration not stated) : -24.7

Measured growth inhibition of CCOP(=O)(Cc1c(C)cc(Br)c2ccccc12)OCC : -9.35

Measured growth inhibition of C=C1C(=O)OC2/C=C(/CO)C3(O)CC(O)C(C)(CC(OC(=O)/C(C)=C/C)C12)O3 (configuration not stated) : -27.2

Measured growth inhibition of CC(C)Cc1c(N)nc(NCCCC(N)C(=O)O)[nH]c1=O (configuration not stated) : 11.8

Measured growth inhibition of O=C(C[n+]1cccc(Cl)c1)c1cccc([N+](=O)[O-])c1 : -5

Measured growth inhibition of NC(N)=NC(N)=Nc1cnccn1 : 15.2

Measured growth inhibition of O=C1Nc2ncnc(Cl)c2Cc2ccccc21 : -12.1

Measured growth inhibition of CCOC(=O)Nc1ccc2c(c1Cl)C(=O)c1ccccc1C2=O : -15.6

Measured growth inhibition of CCOC(=O)c1ccccc1[N+](=O)[O-] : 18.2

Measured growth inhibition of C=CC1OCC2(CO1)COC(C=C)OC2 (configuration not stated) : 2.75

Measured growth inhibition of CSc1ccc(C(N)=O)cn1 : 1.15

Measured growth inhibition of COC1OC(C(C)O)C(O)C(O)C1O (configuration not stated) : 1.5

Measured growth inhibition of CCN(CC)CCN1C(=O)c2c(c(-c3ccccc3)c3ccccc3c2-c2ccccc2)C1=O : 28

Measured growth inhibition of Clc1ccccc1CSc1cnnc(SCc2ccccc2Cl)c1SCc1ccccc1Cl : 27.6

Measured growth inhibition of CCOC(=O)C1C(C)=CC(=O)CC1CC (configuration not stated) : 22.5

Measured growth inhibition of CN(C)c1ccc2c(SCC(=O)OCC(=O)C3(O)CCC4C5CCC6=CC(=O)C=CC6(C)C5C(O)CC43C)c3ccc(N(C)C)cc3nc2c1 (configuration not stated) : 60.9

Measured growth inhibition of CCCCC1CCC(C(=O)O)=NC1 (configuration not stated) : -11.4

Measured growth inhibition of CC(C)COCC1COC2(OCC(C)(C)C2OC(=O)Nc2ccccc2)O1 (configuration not stated) : 17.6

Measured growth inhibition of COCn1c(C(=O)c2ccc(OC)cc2)cc2ccccc21 : 23.4

----------
protocol_details: NCI Yeast Anticancer Drug Screen. Data for the mec2-1 strain (AID 157)
test_settings: S. cerevisiae mec2-1 strain, at 50.0 µM, hits give high values
This is part of a sample that, as a whole, favours compounds with a hit. Of some 79,000 tested, about 15% had one in any assay.
Let's look at some molecules and their measured growth inhibition.
Lab book: enter the figure in %, no units written.

Previously resolved entries follow.
molecule: CCCCC(CCC)OC(=O)Nc1cccc2ccccc12 (stereo unspecified)
measured_endpoint: growth inhibition
reported_measurement: 0.35

molecule: Cc1ncc([N+](=O)[O-])n1CC[N+](C)([O-])CCCCn1ccnc1[N+](=O)[O-] (stereo unspecified)
measured_endpoint: growth inhibition
reported_measurement: -20.6

molecule: CCCC1OC(c2ccccc2)OCC1CC (stereo unspecified)
measured_endpoint: growth inhibition
reported_measurement: 20.2

Measured growth inhibition of C=CC12CCCCC1C(NC)Cc1ccc(OC)c(O)c12 (stereo unspecified) : -1.65

Measured growth inhibition of Cn1c(=O)c2c(nc(N)n2C)n(C)c1=O : -8.35

Measured growth inhibition of COc1ccc(-c2c(C(=O)O)cc(O)c3c(OC)c(OC)c(OC)cc23)cc1OC : 4

----------
protocol_details: NCI Yeast Anticancer Drug Screen. Data for the rad50 strain (AID 155);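 note: 0% = growth of vehicle-only cultures of the same strain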
test_settings: S. cerevisiae rad50 strain growth inhibition; at 50.0 µM; hits give high values
Compounds without any hit were thinned out: in the full panel of roughly 79,000, 15% have a hit.
Let's look at some molecules and their measured growth inhibition.
Lab book: enter the figure in %, no units written.

molecule: CCC(CO)(C(=O)O)c1ccccc1 (configuration not stated)
growth inhibition (%): 1.85

Measured growth inhibition of Clc1nc(Sc2ccc(Br)cc2)c(Cl)c(Sc2ccc(Br)cc2)n1 : -18.9

----------
protocol_details: NCI Yeast Anticancer Drug Screen. Data for the mlh1 rad18 strain (AID 175)
test_settings: S. cerevisiae mlh1 rad18 strain growth inhibition; at 50.0 µM
About 79,000 compounds went through this panel and 15% of them were active in at least one assay; those are over-represented in the sample as a whole. Calls of active or inactive are those of the source. No stated cut-off is given here; in the data, active means growth inhibition above about 70%; inactive means the rest.
Entry note: the call must match one of true = active, false = inactive

The examples below pair each entry with its known result.
molecule: CCOP(=O)(OCC)C1(O)CC(n2cc(C)c(=O)[nH]c2=O)OC1CO (configuration not stated)
category: false

molecule: CCOc1ccccc1/C=C/C(=O)O
category: false

molecule: CCCCCC(C/C=N/N(C)C)C(O)(C(F)(F)F)C(F)(F)F (configuration not stated)
category: true

molecule: COc1ccc(-c2nnc(-c3ccc(OC)cc3)o2)cc1
category: false

Given CCCCCCCCCCCCC(Br)C(=O)OCC (configuration not stated) , state the outcome it received in this test.
false

Given Cn1cnc(N)c1S(N)(=O)=O , state the outcome it received in this test.
false

Given CC(=O)OC(C(=O)N(c1ccccc1)c1ccccc1)c1ccccc1 (configuration not stated) , state the outcome it received in this test.
false

// data source = PubChem BioAssay (NCI)
